Recorded measurements of inhibition at 0.01 µM, one per entry
- tested_on: glucocorticoid receptor (Rattus norvegicus, UniProt P06536)
- Construct: from tissue; host or cells: liver cytosol of male Sprague-Dawley rats
- Sequence (P06536 1-795): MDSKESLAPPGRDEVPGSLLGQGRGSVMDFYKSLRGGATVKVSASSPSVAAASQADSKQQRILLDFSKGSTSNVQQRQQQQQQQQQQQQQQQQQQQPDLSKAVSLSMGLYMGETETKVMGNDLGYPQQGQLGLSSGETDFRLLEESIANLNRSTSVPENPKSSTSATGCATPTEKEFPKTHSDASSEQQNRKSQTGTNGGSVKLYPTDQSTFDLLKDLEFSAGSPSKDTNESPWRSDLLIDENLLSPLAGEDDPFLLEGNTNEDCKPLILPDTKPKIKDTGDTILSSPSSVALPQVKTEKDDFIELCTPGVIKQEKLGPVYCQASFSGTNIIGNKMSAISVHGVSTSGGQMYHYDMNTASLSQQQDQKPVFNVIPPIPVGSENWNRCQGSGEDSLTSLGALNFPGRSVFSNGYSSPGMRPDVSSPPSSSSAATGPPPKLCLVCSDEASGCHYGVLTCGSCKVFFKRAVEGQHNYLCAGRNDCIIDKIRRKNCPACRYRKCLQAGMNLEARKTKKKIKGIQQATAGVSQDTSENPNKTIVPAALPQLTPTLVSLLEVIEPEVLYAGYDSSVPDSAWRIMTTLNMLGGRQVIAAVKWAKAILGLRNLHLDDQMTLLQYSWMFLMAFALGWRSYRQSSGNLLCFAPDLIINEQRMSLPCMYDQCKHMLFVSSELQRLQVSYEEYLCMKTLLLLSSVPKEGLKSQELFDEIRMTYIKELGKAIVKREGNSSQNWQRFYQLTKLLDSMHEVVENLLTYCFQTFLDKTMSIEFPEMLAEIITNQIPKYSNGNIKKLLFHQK
- protocol: Glucocorticoid receptor assay: inhibition of [3H]-dexamethasone binding, liver cytosol
- condition_label: Table 4′; E^−8; read-out: % Inhibition Glucocorticold Receptor E^−8
attribute_measured: inhibition at 0.01 µM (%)

INSERT INTO measurements (molecule, tested_on, measurement) VALUES
  ('COc1ccc2c(c1)CCC1C2CCC2(C)C1CCC21CCC(C)(C)C(=O)O1 (centres unmarked)', 'glucocorticoid receptor (Rattus norvegicus, UniProt P06536)', 3),
  ('CCOc1ccc2c(c1)CCC1C2CC[C@@]2(C)C1CC[C@@]21CCC(C)(C)C(=O)O1 (some centres unmarked)', 'glucocorticoid receptor (Rattus norvegicus, UniProt P06536)', 1),
  ('COc1c(Br)cc2c(c1Br)CCC1C2CCC2(C)C1CCC21CCC(C)(C)C(=O)O1 (centres unmarked)', 'glucocorticoid receptor (Rattus norvegicus, UniProt P06536)', 0),
  ('CC1(C)CCC2(CCC3C4CCc5cc(OS(C)(=O)=O)ccc5C4CCC32C)OC1=O (centres unmarked)', 'glucocorticoid receptor (Rattus norvegicus, UniProt P06536)', 0),
  ('CC1(C)CC[C@@]2(CCC3C4CCc5cc(F)ccc5C4CC[C@@]32C)OC1=O (some centres unmarked)', 'glucocorticoid receptor (Rattus norvegicus, UniProt P06536)', 1),
  ('CC1(C)CC[C@@]2(CCC3C4CCc5cc6oncc6cc5C4CC[C@@]32C)OC1=O (some centres unmarked)', 'glucocorticoid receptor (Rattus norvegicus, UniProt P06536)', 0),
  ('COc1ccc2c(c1)C(=O)CC1C2CC[C@@]2(C)C1CC[C@@]21CCC(C)(C)C(=O)O1 (some centres unmarked)', 'glucocorticoid receptor (Rattus norvegicus, UniProt P06536)', 3),
  ('COCCOc1cc2c(cc1C(N)=O)C1CC[C@@]3(C)C(CC[C@@]34CCC(C)(C)C(=O)O4)C1CC2 (some centres unmarked)', 'glucocorticoid receptor (Rattus norvegicus, UniProt P06536)', 0);

====

- Test system: progesterone receptor
- protocol: Progesterone receptor assay: inhibition of [3H]R5020 binding, uterine cytosol
- Set-up: species or system rat
- condition_label: E^−8
attribute_measured: % Inhibition Progesterone Receptor

INSERT INTO measurements (compound, measurement) VALUES
  ('COc1ccc(CC(=O)O[C@]2(C(C)=O)CCC3C4C=C(C)C5=CC(=O)C=C[C@]5(C)C4CC[C@@]32C)cc1 (some centres unmarked) [EM-1291]', '0%'),
  ('COC(=O)CCCC(=O)O[C@]1(C(C)=O)CC[C@H]2[C@@H]3C=C(C)C4=CC(=O)CC[C@]4(C)[C@H]3CC[C@@]21C [EM-1007]', '0%'),
  ('CCCC(=O)OC1(C(C)=O)CCC2C3C=C(C)C4=CC(=O)CC(C)C4(C)C3CCC21C (centres unmarked) [CS-245]', '0%'),
  ('CC(=O)O[C@]1(C(C)=O)CCC2C3C=C(C)C4=CC(=O)CC[C@]4(C)C3CC[C@@]21C (some centres unmarked) [megestrol acetate, reference compound]', '3%'),
  ('CCC(=O)O[C@]1(C(C)=O)CCC2C3C=C(C)C4=CC(=O)C[C@H](C)[C@]4(C)C3CC[C@@]21C (some centres unmarked) [CS-243]', '0%'),
  ('CC(=O)[C@@]1(OC(=O)CCCCF)CCC2C3C=C(C)C4=CC(=O)CC[C@]4(C)C3CC[C@@]21C (some centres unmarked) [EM-1195-CS]', '0%'),
  ('CC(=O)O[C@]1(C(=O)N(C)C)CCC2C3C=C(C)C4=CC(=O)CC[C@]4(C)C3CC[C@@]21C (some centres unmarked) [EM-1159]', '2%'),
  ('CCCCN(C)C(=O)[C@@]1(OC(C)=O)CCC2C3C=C(C)C4=CC(=O)CC[C@]4(C)C3CC[C@@]21C (some centres unmarked) [EM-1165]', '0%');

====

- tested_on: androgen receptor (Rattus norvegicus, UniProt P15207)
- Construct: from tissue; host or cells: ventral prostate cytosol of gonadectomized male Sprague-Dawley rats
- Sequence (P15207 1-902): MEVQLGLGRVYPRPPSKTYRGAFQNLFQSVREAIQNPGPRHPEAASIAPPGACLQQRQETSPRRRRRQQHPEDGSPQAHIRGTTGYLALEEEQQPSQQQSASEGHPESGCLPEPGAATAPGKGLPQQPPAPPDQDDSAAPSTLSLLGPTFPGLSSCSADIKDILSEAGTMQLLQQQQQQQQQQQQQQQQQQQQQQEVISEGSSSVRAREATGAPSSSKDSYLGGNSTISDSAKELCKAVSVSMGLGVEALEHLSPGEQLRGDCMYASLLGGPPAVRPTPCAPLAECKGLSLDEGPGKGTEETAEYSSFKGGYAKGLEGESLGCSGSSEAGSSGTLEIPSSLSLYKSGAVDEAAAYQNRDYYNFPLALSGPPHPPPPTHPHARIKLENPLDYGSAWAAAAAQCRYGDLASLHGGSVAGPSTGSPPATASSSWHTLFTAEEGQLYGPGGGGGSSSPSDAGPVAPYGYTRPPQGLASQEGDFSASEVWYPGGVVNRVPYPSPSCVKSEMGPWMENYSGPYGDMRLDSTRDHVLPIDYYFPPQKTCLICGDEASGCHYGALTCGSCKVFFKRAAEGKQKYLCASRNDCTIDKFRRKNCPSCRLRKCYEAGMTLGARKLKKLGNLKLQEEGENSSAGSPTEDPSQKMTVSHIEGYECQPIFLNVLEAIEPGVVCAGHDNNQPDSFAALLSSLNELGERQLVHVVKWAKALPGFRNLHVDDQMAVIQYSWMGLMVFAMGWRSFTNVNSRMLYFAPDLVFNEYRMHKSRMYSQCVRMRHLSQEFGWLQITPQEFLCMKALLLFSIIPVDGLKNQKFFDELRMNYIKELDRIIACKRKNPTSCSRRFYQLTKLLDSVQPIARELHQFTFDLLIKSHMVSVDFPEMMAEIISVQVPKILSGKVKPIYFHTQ
- protocol: Androgen receptor (AR) assay: inhibition of [3H]R1881 binding, prostate cytosol
- condition_label: E^−6
attribute_measured: inhibition at 1 µM (%)

INSERT INTO assay_data (compound, attribute_measured, measurement) VALUES
  ('CCC[C@@H]1CC2C3C=CC4=CC(=O)CC[C@]4(C)C3CC[C@]2(C)C1=O (stereo partly shown) [EM-1097]', 'inhibition at 1 µM', 5),
  ('CC12C=CC(=O)C=C1C=CC1C2CCC2(C)C(=O)C3(CCCCC3)CC12 (stereo not shown) [CS-204]', 'inhibition at 1 µM', 5),
  ('CCC[C@]1(F)CC2C3C=CC4=CC(=O)CC[C@]4(C)C3CC[C@]2(C)C1=O (stereo partly shown) [EM-1183]', 'inhibition at 1 µM', 1),
  ('CC(C)C[C@@H]1CC2C3C=CC4=CC(=O)CC[C@]4(C)C3CC[C@]2(C)C1=O (stereo partly shown) [EM-1273-CS]', 'inhibition at 1 µM', 0);

====

- tested_on: androgen receptor (Rattus norvegicus)
- Construct: from tissue; host or cells: ventral prostate cytosol of gonadectomized male Sprague-Dawley rats
- protocol: Androgen receptor (AR) assay: inhibition of [3H]R1881 binding, prostate cytosol
- condition_label: Table 4′; E^−8
attribute_measured: inhibition at 0.01 µM (%)

INSERT INTO measurements (molecule, attribute_measured, measurement) VALUES
  ('C[C@]12CCC3c4cc([N+](=O)[O-])c(O)cc4CCC3C1CC[C@@]21CCCC(=O)O1 (stereo partly drawn) [EM-1124]', 'inhibition at 0.01 µM', 1),
  ('COc1ccc2c(c1)C(=O)CC1C2CC[C@@]2(C)C1CC[C@@]21CCC(C)(C)C(=O)O1 (stereo partly drawn) [EM-1394]', 'inhibition at 0.01 µM', 0),
  ('COc1cc2c(cc1C)C1CCC3(C)C(CCC34CCC(C)(C)C(=O)O4)C1CC2 (stereo not drawn) [EM-1412-CS]', 'inhibition at 0.01 µM', 0),
  ('CC1(C)CCC2(CCC3C4CCc5cc(OCCN6CCCCC6)ccc5C4CCC32C)OC1=O (stereo not drawn) [EM-1390-CS]', 'inhibition at 0.01 µM', 0),
  ('CC1(C)CCC2(CCC3C4CCc5c(cc(Cl)c(O)c5Cl)C4CCC32C)OC1=O (stereo not drawn) [EM-1391-CS]', 'inhibition at 0.01 µM', 0),
  ('COCCOc1cc2c(cc1C(=O)O)C1CCC3(C)C(CCC34CCC(C)(C)C(=O)O4)C1CC2 (stereo not drawn) [EM-1405]', 'inhibition at 0.01 µM', 0),
  ('COc1c(Br)cc2c(c1Br)CCC1C2CCC2(C)C1CCC21CCC(C)(C)C(=O)O1 (stereo not drawn) [EM-1385-CS]', 'inhibition at 0.01 µM', 0),
  ('CN(C)C(=O)c1ccc2c(c1)CCC1C2CCC2(C)C1CCC21CCC(C)(C)C(=O)O1 (stereo not drawn) [EM-1403]', 'inhibition at 0.01 µM', 0),
  ('CC1(C)CCC2(CCC3C4CCc5c(cc(Cl)c(OS(C)(=O)=O)c5Cl)C4CCC32C)OC1=O (stereo not drawn) [EM-1392-CS]', 'inhibition at 0.01 µM', 0),
  ('CC1(C)CC[C@@]2(CCC3C4CCc5cc(F)ccc5C4CC[C@@]32C)OC1=O (stereo partly drawn) [EM-1157-CS]', 'inhibition at 0.01 µM', 0),
  ('CC1(C)CC[C@@]2(CCC3C4CCc5cc6oncc6cc5C4CC[C@@]32C)OC1=O (stereo partly drawn) [EM-1407-CS]', 'inhibition at 0.01 µM', 0),
  ('CC1CCC2(CCC3C4CCc5cc(O)c([N+](=O)[O-])cc5C4CCC32C)OC1=O (stereo not drawn) [EM-1131]', 'inhibition at 0.01 µM', 2),
  ('CC1CCC2(CCC3C4CCc5ccccc5C4CCC32C)OC1=O (stereo not drawn) [EM-1025]', 'inhibition at 0.01 µM', 0),
  ('COCCOc1cc2c(cc1C(=O)OC)C1CC[C@@]3(C)C(CC[C@@]34CCC(C)(C)C(=O)O4)C1CC2 (stereo partly drawn) [EM-1402-CS]', 'inhibition at 0.01 µM', 0),
  ('CSCCOc1ccc2c(c1)CCC1C2CCC2(C)C1CCC21CCCC(=O)O1 (stereo not drawn) [CS-242]', 'inhibition at 0.01 µM', 0),
  ('CCOc1ccc2c(c1)CCC1C2CC[C@@]2(C)C1CC[C@@]21CCC(C)(C)C(=O)O1 (stereo partly drawn) [EM-1369]', 'inhibition at 0.01 µM', 0),
  ('COCCOc1ccc2c(c1)C(=O)CC1C2CCC2(C)C1CCC21CCC(C)(C)C(=O)O1 (stereo not drawn) [EM-1408-CS]', 'inhibition at 0.01 µM', 0),
  ('COc1ccc2c(c1)C(=O)CC1C3CCC4(CCC(C)(C)C(=O)O4)C3(C)CCC21O (stereo not drawn) [EM-1386]', 'inhibition at 0.01 µM', 0),
  ('COCCOc1ccc2c(c1)CCC1C2CCC2(C)C1CCC21CCC(C)(C)C(=O)O1 (stereo not drawn) [EM-1368-CS]', 'inhibition at 0.01 µM', 0),
  ('CC12CCC3c4ccc(F)cc4CCC3C1CCC21CCCC(=O)O1 (stereo not drawn) [EM-1170-CS]', 'inhibition at 0.01 µM', 0),
  ('CC1(C)CCC2(CCC3C4CCc5ccccc5C4CCC32C)OC1=O (stereo not drawn) [CS-224]', 'inhibition at 0.01 µM', 0),
  ('CCS(=O)(=O)Oc1ccc2c(c1)CCC1C2CCC2(C)C1CCC21CCC(C)(C)C(=O)O1 (stereo not drawn) [EM-1364-CS]', 'inhibition at 0.01 µM', 0),
  ('CN(C)CCOc1ccc2c(c1)CCC1C2CCC2(C)C1CCC21CCC(C)(C)C(=O)O1 (stereo not drawn) [EM-1389-CS]', 'inhibition at 0.01 µM', 0),
  ('CC1(C)CCC2(CCC3C4CCc5cc(O)c([N+](=O)[O-])cc5C4CCC32C)OC1=O (stereo not drawn) [EM-1125-CS]', 'inhibition at 0.01 µM', 2),
  ('COc1ccc2c(c1)CCC1C2CCC2(C)C1CCC21CCC(C)(C)C(=O)O1 (stereo not drawn) [EM-1370]', 'inhibition at 0.01 µM', 3),
  ('COCCOc1cc2c(cc1C(N)=O)C1CC[C@@]3(C)C(CC[C@@]34CCC(C)(C)C(=O)O4)C1CC2 (stereo partly drawn) [EM-1424]', 'inhibition at 0.01 µM', 2),
  ('CC1(C)CC[C@@]2(CCC3C4CCc5cc(C(=O)O)ccc5C4CC[C@@]32C)OC1=O (stereo partly drawn) [EM-1401]', 'inhibition at 0.01 µM', 0);
